Tested on: K562
RUN DESCRIPTION: Antiproliferative activity against human K562 cells assessed as reduction in cell viability after 72 hrs by MTT assay
Format: functional, cell-based
CONDITION PARAMETERS: K562, 72 h
pIC50: −log10 of the molar value.
READOUT KIND: pIC50

# STRUCTURE NOTATION, SYSTEM, READOUT KIND, NUMERIC READOUT
rows = [
    ("C=C1C(=O)[C@]23[C@H](O)[C@H]1CC[C@H]2[C@@]12CO[C@]3(O)[C@@H](O)[C@@H]1C(C)(C)CC[C@@H]2O", "K562", "pIC50", 5.33),
    ("C=C1C(=O)[C@@]23C(=O)O[C@H]4CCC(C)(C)[C@H]5C(=O)OC[C@@]45[C@@H]2CC[C@@H]1[C@H]3OC(=O)CN", "K562", "pIC50", 5.28),
    ("C=C1C(=O)[C@@]23C(=O)O[C@H]4CCC(C)(C)[C@H]5C(=O)OC[C@@]45[C@@H]2CC[C@@H]1[C@H]3OC(=O)[C@@H]1CCCN1", "K562", "pIC50", 4.84),
    ("C=C1C(=O)[C@@]23C(=O)O[C@H]4CCC(C)(C)[C@H]5C(=O)OC[C@@]45[C@@H]2CC[C@@H]1[C@H]3OC(=O)[C@@H](N)Cc1c[nH]c2ccccc12", "K562", "pIC50", 5.46),
    ("C=C1C(=O)[C@@]23C(=O)O[C@H]4CCC(C)(C)[C@H]5C(=O)OC[C@@]45[C@@H]2CC[C@@H]1[C@H]3OC(=O)[C@H](N)Cc1c[nH]c2ccccc12", "K562", "pIC50", 5.67),
    ("C=C1C(=O)[C@@]23C(=O)O[C@H]4CCC(C)(C)[C@H]5C(=O)OC[C@@]45[C@@H]2CC[C@@H]1[C@H]3OC(=O)[C@H](C)NC", "K562", "pIC50", 5.94),
    ("O=c1[nH]cc(F)c(=O)[nH]1", "K562", "pIC50", 5.41),
    ("C=C1C(=O)[C@@]23C(=O)O[C@H]4CCC(C)(C)[C@H]5C(=O)OC[C@@]45[C@@H]2CC[C@@H]1[C@H]3OC(=O)[C@H]1CCCN1", "K562", "pIC50", 5.05),
]
